assay: Lipophilicity, log D of the compound at pH 7.4; type: physicochemical; conditions: buffer, read-out: logD
Returns one of Satisfied or Not satisfied; Satisfied when logD is >= 4.

# count of solved cases: 5
- compoundStructure: "Cc1ccc(-n2nc(C(C)(C)C)cc2NC(=O)Nc2ccc(-c3ccncc3)cc2)cc1"
  answerLabel: "Not satisfied"
- compoundStructure: "Cc1ccc(-n2nc(C(C)(C)C)cc2NC(=O)Nc2ccc(-c3cnco3)cc2)cc1"
  answerLabel: "Satisfied"
- compoundStructure: "Cc1ccc(-n2nc(C(C)(C)C)cc2NC(=O)Nc2ccc(-n3nnnc3C)cc2)cc1"
  answerLabel: "Not satisfied"
- compoundStructure: "Cc1ccc(-n2nc(C(C)(C)C)cc2NC(=O)Nc2ccc(-c3nncn3C)cc2)cc1"
  answerLabel: "Not satisfied"
- compoundStructure: "Cc1ccc(-n2nc(C(C)(C)C)cc2NC(=O)Nc2ccc(-n3cncc3C)cc2)cc1"
  answerLabel: "Satisfied"

In the following, a different compound is considered.
Query string: Could you tell me if the measured logD of Cc1ccc(-n2nc(C(C)(C)C)cc2NC(=O)Nc2ccc(-c3cccnc3)cc2)cc1 reaches 4 or more?
Result string: Satisfied
